B1: Azoarcus group I ribozyme (parent)
chain: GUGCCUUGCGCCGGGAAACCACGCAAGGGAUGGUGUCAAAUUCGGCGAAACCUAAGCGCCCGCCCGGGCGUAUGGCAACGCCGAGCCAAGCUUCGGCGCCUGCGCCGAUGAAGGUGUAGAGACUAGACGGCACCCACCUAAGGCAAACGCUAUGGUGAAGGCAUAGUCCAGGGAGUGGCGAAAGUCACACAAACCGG

Variants of: B1
Assay: reverse-splicing fitness (ratio to wild type); higher = more active; in vitro selection; Mg2+ level not given
Reported reverse-splicing fitness is given for each of the following variants.
Quantity Measured: reverse-splicing fitness

[[record]]
variant_id = "C82U A111U A120C A145G C150U C169A U176G"
readout_number = 0.00576

[[record]]
variant_id = "C82G U176C"
readout_number = 0.352

[[record]]
variant_id = "C82G A120C C169G U176C"
readout_number = 0.0176

[[record]]
variant_id = "C82A A120U A145C C150U C169A"
readout_number = 0.00197

[[record]]
variant_id = "C82U A111C A120U A145G C150G C169A U176A"
readout_number = 0.0114

[[record]]
variant_id = "C82U A111U A120C A145U C169A U176G"
readout_number = 0.00442

[[record]]
variant_id = "C82G A111U C169A U176C"
readout_number = 0.0203

[[record]]
variant_id = "A120C A145U C169G U176A"
readout_number = 0.00826

[[record]]
variant_id = "C82U A111G A120U C150G C169U U176C"
readout_number = 0.00396

[[record]]
variant_id = "C82U A111G A145U C169G U176A"
readout_number = 0.00999

[[record]]
variant_id = "C82U A120U A145G C150A C169U U176A"
readout_number = 0.0038

[[record]]
variant_id = "C82G A111U A120U C169A"
readout_number = 0.0043

[[record]]
variant_id = "C82G A111U A120C A145U C150G C169G U176A"
readout_number = 0.00838

[[record]]
variant_id = "C82A A111U A120U A145G C150A C169A U176A"
readout_number = 0.0108

[[record]]
variant_id = "C82A A111G A120G A145G C150U C169U U176A"
readout_number = 0.0182

[[record]]
variant_id = "C82U A120C A145G C169G U176G"
readout_number = 0.00346

[[record]]
variant_id = "A111U A120C A145G C169U U176A"
readout_number = 0.0335

[[record]]
variant_id = "A120G C150G C169U U176G"
readout_number = 0.00662

[[record]]
variant_id = "C82G A111G A120U A145U C150A U176G"
readout_number = 0.00244

[[record]]
variant_id = "C82A A111U A120U U176C"
readout_number = 0.0105

[[record]]
variant_id = "C82U A111G A120G C150G C169U U176C"
readout_number = 0.0124

[[record]]
variant_id = "C82A A111U A145C C169G"
readout_number = 0.00993

[[record]]
variant_id = "C82G A120U A145G C150U C169A"
readout_number = 0.00606

[[record]]
variant_id = "C82U A111U A145U C150G C169G U176C"
readout_number = 0.00578

[[record]]
variant_id = "C82G A120U C150A C169U U176G"
readout_number = 0.00185

[[record]]
variant_id = "A111G A145U C150A C169A U176A"
readout_number = 0.0121

[[record]]
variant_id = "C82A A111G A120G C150G U176A"
readout_number = 0.0058

[[record]]
variant_id = "C82A A111G A145C C150G C169U"
readout_number = 0.00926

[[record]]
variant_id = "C82G A120U A145C C150U U176A"
readout_number = 0.0158

[[record]]
variant_id = "C82G A111U A145U C150A C169A U176C"
readout_number = 0.0126

[[record]]
variant_id = "C82A A145C C150A U176C"
readout_number = 0.0306

[[record]]
variant_id = "A145U C150U C169G"
readout_number = 0.215

[[record]]
variant_id = "A111C A120G A145U C150G C169G U176C"
readout_number = 0.00574

[[record]]
variant_id = "C82A A111G A145C C150U C169A"
readout_number = 0.00814

[[record]]
variant_id = "C82U A111U A120G C150A C169U U176G"
readout_number = 0.00726

[[record]]
variant_id = "A120G U176G"
readout_number = 0.0139

[[record]]
variant_id = "C82A A111U A120G A145C C150G C169U U176C"
readout_number = 0.0117

[[record]]
variant_id = "A120G A145G C150G U176C"
readout_number = 0.0592

[[record]]
variant_id = "C82U A120C A145G"
readout_number = 0.169

[[record]]
variant_id = "C82U A120G C150G C169A"
readout_number = 0.00923

[[record]]
variant_id = "A111G A120G C150A C169G U176C"
readout_number = 0.0343

[[record]]
variant_id = "A111U C150A C169A U176C"
readout_number = 0.0168

[[record]]
variant_id = "C82A A111G A120U A145C C150U U176C"
readout_number = 0.00422

[[record]]
variant_id = "C82G A111C A145U C150U C169U U176C"
readout_number = 0.0115

[[record]]
variant_id = "A111U A145U C150A C169A"
readout_number = 0.01

[[record]]
variant_id = "C82A A111U A120C A145U U176C"
readout_number = 0.0276

